biological target: purified HLA DRB1*0802 (Homo sapiens, UniProt P01903+P01911, A100R/A103L/A169T/F76Y/H45Y/I96F/K41T/L162R/M171V/P40S/Q125H/Q178H/Q39Y/Q99D/R218S/R42G/S66Y/V115G/W38E); construct: purified from EBV transformed homozygous cell lines or single MHC allele transfected 721.221, C1R, or fibroblast lines; made in house; experiment: HLA-DR radioligand binding inhibition assay, DRB1*0802; settings: IC50 nM purified HLA DRB1 *0802, purified HLA DRB1*0802
valueType: IC50

Prompt: IC50 for CSCC[C@H](NC(=O)CNC(=O)[C@H](CC(C)C)NC(=O)CNC(=O)[C@H](Cc1ccc(O)cc1)NC(=O)[C@@H](N)CS)C(=O)N[C@@H](CCC(=O)O)C(=O)N[C@@H](Cc1c[nH]cn1)C(=O)N[C@@H](CC(C)C)C(=O)N[C@@H](CCCNC(=N)N)C(=O)N[C@@H](CCC(=O)O)C(=O)N[C@H](C(=O)N[C@@H](CCCNC(=N)N)C(=O)N[C@@H](C)C(=O)N[C@H](C(=O)O)C(C)C)C(C)C [Peptide 9019.0044] ?
Response: > 20000 nM

###

molecular target: purified HLA DRB5*0101 (Homo sapiens, UniProt P01903+Q30154); construct: purified from EBV transformed homozygous cell lines or single MHC allele transfected 721.221, C1R, or fibroblast lines; made in house; test: HLA-DR radioligand binding inhibition assay, DRB5*0101; details: IC50 nM purified HLA DRB5 *0101, purified HLA DRB5*0101
valueType: IC50 (nM)
Numbers only here, please. The scale is nM.

Prompt: Which measured IC50 belongs to CC[C@H](C)[C@H](NC(=O)CNC(=O)[C@H](CS)NC(=O)[C@@H](N)C(C)C)C(=O)N[C@@H](CCC(N)=O)C(=O)N[C@@H](CC(N)=O)C(=O)N[C@@H](CO)C(=O)N[C@H](C(=O)N[C@@H](CO)C(=O)N[C@@H](C)C(=O)N[C@@H](CC(N)=O)C(=O)N[C@@H](CCCNC(=N)N)C(=O)N[C@@H](CO)C(=O)N[C@@H](CC(=O)O)C(=O)N1CCC[C@H]1C(=O)O)C(C)C [Peptide 9019.0135] , tested on purified HLA DRB5*0101 (Homo sapiens, UniProt P01903+Q30154)?
Response: 36

Prompt: And CC[C@H](C)[C@H](NC(=O)[C@H](CCCNC(=N)N)NC(=O)CNC(=O)[C@H](CCCNC(=N)N)NC(=O)[C@@H](NC(=O)[C@@H](NC(=O)[C@H](CCC(N)=O)NC(=O)[C@H](CC(C)C)NC(=O)[C@@H](N)CC(N)=O)C(C)C)[C@@H](C)CC)C(=O)N[C@@H](CC(C)C)C(=O)N[C@@H](Cc1c[nH]cn1)C(=O)N[C@@H](CC(N)=O)C(=O)NCC(=O)N[C@@H](C)C(=O)N[C@@H](Cc1ccc(O)cc1)C(=O)O [Peptide 9019.0053] ?
Response: 28

Prompt: And CC(C)C[C@H](NC(=O)[C@H](CCC(=O)O)NC(=O)[C@H](CCCNC(=N)N)NC(=O)[C@H](CC(C)C)NC(=O)CNC(=O)CNC(=O)[C@@H]1CCCN1C(=O)[C@H](CO)NC(=O)[C@H](C)NC(=O)CNC(=O)[C@@H](NC(=O)[C@@H](NC(=O)[C@@H]1CCCN1C(=O)[C@@H](NC(=O)[C@@H](N)[C@@H](C)O)[C@@H](C)O)C(C)C)[C@@H](C)O)C(=O)O [Peptide 9019.0037] ?
Response: 3000

Prompt: And CC(C)C[C@H](NC(=O)[C@H](CC(N)=O)NC(=O)[C@H](C)NC(=O)CNC(=O)[C@H](CO)NC(=O)[C@H](CC(C)C)NC(=O)[C@H](Cc1ccc(O)cc1)NC(=O)[C@H](CO)NC(=O)[C@@H](N)CO)C(=O)N[C@@H](CC(N)=O)C(=O)N[C@@H](CC(C)C)C(=O)N[C@@H](CO)C(=O)N[C@@H](CS)C(=O)N[C@@H](Cc1c[nH]cn1)C(=O)N[C@@H](CO)C(=O)O [Peptide 9019.0137] ?
Response: 14100

Taken from patent US20140377340A1.
